system.under.test: unphosphorylated Mouse ERK2 protein (inactive ERK2) (Mus musculus, UniProt P63085)
Sequence (P63085 whole entry): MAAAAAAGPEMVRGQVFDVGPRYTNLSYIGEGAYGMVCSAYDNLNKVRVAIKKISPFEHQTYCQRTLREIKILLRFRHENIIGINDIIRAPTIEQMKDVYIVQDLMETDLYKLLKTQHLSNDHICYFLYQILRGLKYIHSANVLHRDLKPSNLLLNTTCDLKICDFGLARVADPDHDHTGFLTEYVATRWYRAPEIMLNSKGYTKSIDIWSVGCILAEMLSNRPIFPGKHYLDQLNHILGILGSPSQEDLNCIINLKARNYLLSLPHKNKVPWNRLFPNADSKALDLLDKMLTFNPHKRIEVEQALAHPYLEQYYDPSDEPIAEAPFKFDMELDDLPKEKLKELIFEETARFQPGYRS
assay.summary: Coupled ERK2 (cERK) assay, coupled MEK1/ERK2 IMAP
stated.conditions: 30 min preincubation with inactive ERK2, then activation by human MEK1; 30 μM ATP; fluorescence polarization; read-out: cERK2 IC50
Consider the following compounds; for each one, report its IC50.
Report only the number, with the unit µM understood.

## Input What value of IC50 has been recorded for this entry: O=C(Nc1ccc2[nH]nc(-c3ccncc3)c2c1)C1(CO)CCCN(Cc2ccccc2)C1 (centres unmarked) [Compound 66]
## Output 1

## Input Quick one: O=C(Nc1ccc2[nH]nc(-c3ccncc3)c2c1)C1CN(Cc2c(F)cccc2F)CCO1 (centres unmarked) [Compound 44]
## Output 0.109

## Input Another compound to check: O=C(Nc1ccc2[nH]nc(-c3ccncc3)c2c1)C1CNCCC1c1ccccc1 (centres unmarked) [Compound 53]
## Output 0.0695

## Input Please do the same for O=C(Nc1ccc2[nH]nc(-c3ccncc3)c2c1)C1CN(Cc2ccccc2F)CCS1(=O)=O (centres unmarked) [Compound 70] as well.
## Output 0.0177

## Input Continue with O=C(Nc1ccc2[nH]nc(-c3ccncc3)c2c1)[C@@H]1CN(Cc2ccccc2F)CCS1 [Compound 60]
## Output 0.0723

## Input Also O=C(Nc1ccc2[nH]nc(-c3ccncc3)c2c1)[C@@H]1CN(Cc2ccccc2)CCN1 [Compound 57] ?
## Output 0.0618

## Input Next entry: O=C(Nc1ccc2[nH]nc(-c3ccncc3)c2c1)C1CN(Cc2ccccn2)CCS1 (centres unmarked) [Compound 12]
## Output 1.31

## Input Now consider O=C(Nc1ccc2[nH]nc(-c3ccncc3)c2c1)C1CNCC(c2ccccc2)C1 (centres unmarked) [Compound 79] and answer again.
## Output 0.0694

## Input Then this compound: O=C(Nc1ccc2[nH]nc(-c3ccncc3)c2c1)C1CN(Cc2cccc(F)c2F)CCO1 (centres unmarked) [Compound 43]
## Output 0.218

## Input Moving on to O=C(Nc1ccc2[nH]nc(-c3ccncc3)c2c1)C1CCN(Cc2ccccc2F)C1 (centres unmarked) [Compound 65]
## Output 0.0771

## Input Also O=C(Nc1ccc2[nH]nc(-c3ccncc3)c2c1)C1CN(Cc2cccc(Cl)c2)CCO1 (centres unmarked) [Compound 29] , if possible.
## Output 0.151

## Input What about O=C(Nc1ccc2[nH]nc(-c3ccncc3)c2c1)C1CCCN(Cc2ccccc2Cl)C1 (centres unmarked) [Compound 23] ?
## Output 0.158

## Input Here is the next compound: O=C(Nc1ccc2[nH]nc(-c3ccncc3)c2c1)C1CN(Cc2cscn2)CCS1 (centres unmarked) [Compound 13]
## Output 0.929

## Input Entry to check: O=C(Nc1ccc2[nH]nc(-c3ccncc3)c2c1)C1CNCCC1c1ccc(F)cc1 (centres unmarked) [Compound 52]
## Output 0.0608

## Input Thanks! And O=C(Nc1ccc2[nH]nc(-c3ccncc3)c2c1)C1CN(Cc2ccccc2F)CCS1 (centres unmarked) [Compound 10] ?
## Output 0.0364

## Input // query: CCCCNC(=O)c1n[nH]c2ccc(NC(=O)C3CN(Cc4ccccc4F)CCS3)cc12 (centres unmarked) [Compound 76]
## Output 0.873

## Input Likewise for CNC(=O)c1n[nH]c2ccc(NC(=O)C3CN(Cc4ccccc4F)CCS3)cc12 (centres unmarked) [Compound 75] ?
## Output 0.35

---

Assay read-out IC50; system under study: fully phosphorylated, active Mouse ERK2 protein (Mus musculus).
Give the value in nM but do not write nM after it.

## Input Data request, read-out IC50, for O=C(Nc1ccc2[nH]nc(-c3ccncc3)c2c1)C1CN(Cc2ccccc2Cl)CCS1 (stereo not shown)
## Output 54.2

## Input Note, next up: O=C(Nc1ccc2[nH]nc(-c3ccncc3)c2c1)C1CN(Cc2c(F)ccc(Cl)c2F)CCO1 (stereo not shown)
## Output 581

## Input Same question, O=C(Nc1ccc2[nH]nc(-c3ccncc3)c2c1)C1CN(C(=O)OCc2ccccc2)CCN1 (stereo not shown) this time
## Output 2200

## Input Repeat for the following compound: O=C(Nc1ccc2[nH]nc(-c3ccncc3)c2c1)C1CNCCO1 (stereo not shown)
## Output 852

## Input And then O=C(Nc1ccc2[nH]nc(-c3ccncc3)c2c1)C1CN(Cc2ccc(F)cc2F)CCO1 (stereo not shown) , what is it?
## Output 138

## Input Further, for O=C(Nc1ccc2[nH]nc(-c3ccncc3)c2c1)C1CN(Cc2c(F)cccc2Cl)CCO1 (stereo not shown) ?
## Output 111

## Input Please do the same for O=C(Nc1ccc2[nH]nc(-c3ccncc3)c2c1)C1CN(Cc2c(F)ccc(F)c2Cl)CCO1 (stereo not shown) as well.
## Output 371

## Input Lookup O=C(Nc1ccc2[nH]nc(-c3ccncc3)c2c1)C1CN(Cc2ccccn2)CCO1 (stereo not shown)
## Output 1070

## Input What do you have for COc1ccccc1CN1CCOC(C(=O)Nc2ccc3[nH]nc(-c4ccncc4)c3c2)C1 (stereo not shown) ?
## Output 37.9

## Input Another compound to look at: O=C(Nc1ccc2[nH]nc(-c3ccncc3)c2c1)C1CN(Cc2cccnc2)CCO1 (stereo not shown)
## Output 17000

## Input What about this compound? N#Cc1ccccc1N1CCCC(C(=O)Nc2ccc3[nH]nc(-c4ccncc4)c3c2)C1 (stereo not shown)
## Output 82.3

## Input Try the compound O=C(Nc1ccc2[nH]nc(-c3ccncc3)c2c1)C1CN(Cc2c(F)cccc2F)CCO1 (stereo not shown)
## Output 69.2

## Input Another: O=C(Nc1ccc2[nH]nc(-c3ccncc3)c2c1)C1CNCC(c2ccccc2)C1 (stereo not shown)
## Output 124

## Input Repeat with CSC1(C(=O)Nc2ccc3[nH]nc(-c4ccncc4)c3c2)CCN(Cc2ccccc2F)C1 (stereo not shown)
## Output 211

## Input Same read-out for "O=C(Nc1ccc2[nH]nc(-c3ccncc3)c2c1)[C@@H]1CN(Cc2ccccc2F)CCS1" ?
## Output 175

## Input Entry O=C(Nc1ccc2[nH]nc(-c3ccncc3)c2c1)C1CN(Cc2cc(Cl)cc(Cl)c2)CCO1 (stereo not shown) please
## Output 8680

---

Consider the following compounds; for each one, report its pKd.
system.under.test: ERK protein (Homo sapiens, UniProt P28482)
Sequence (P28482 2-360): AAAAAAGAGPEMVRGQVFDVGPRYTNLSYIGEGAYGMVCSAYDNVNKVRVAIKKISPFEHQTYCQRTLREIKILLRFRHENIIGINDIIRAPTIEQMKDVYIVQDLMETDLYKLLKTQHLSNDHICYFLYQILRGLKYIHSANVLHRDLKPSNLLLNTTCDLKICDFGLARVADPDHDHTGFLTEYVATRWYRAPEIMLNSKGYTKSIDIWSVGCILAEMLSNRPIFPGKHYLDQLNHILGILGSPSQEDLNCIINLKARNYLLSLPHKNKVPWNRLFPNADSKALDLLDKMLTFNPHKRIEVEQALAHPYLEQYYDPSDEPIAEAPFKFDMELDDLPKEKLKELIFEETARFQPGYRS
Scale: pKd equals -log10([C]), with [C] in mol/L.

## Input For ERK protein (Homo sapiens, UniProt P28482), provide pKd of O=C(Nc1ccc2[nH]nc(-c3ccncc3)c2c1)C1CN(C(=O)OCc2ccccc2)CCN1 (centres unmarked) please.
## Output 6.22

## Input What about O=C(Nc1ccc2[nH]nc(-c3ccncc3)c2c1)C1CN(Cc2c(F)ccc(F)c2Cl)CCO1 (centres unmarked) ?
## Output 6.69

## Input What do you get for O=C(Nc1ccc2[nH]nc(-c3ccncc3)c2c1)C1CN(Cc2c(F)ccc(Cl)c2F)CCO1 (centres unmarked) ?
## Output 6.65

## Input Record: O=C(Nc1ccc2[nH]nc(-c3ccncc3)c2c1)C1CN(Cc2cccnc2)CCS1 (centres unmarked)
## Output 5.34

## Input Follow-up item: O=C(Nc1ccc2[nH]nc(-c3ccncc3)c2c1)C1CN(Cc2cc(C(F)(F)F)ccc2F)CCO1 (centres unmarked)
## Output 5.90

## Input And CSc1ccc(CN2CCOC(C(=O)Nc3ccc4[nH]nc(-c5ccncc5)c4c3)C2)cc1 (centres unmarked) ?
## Output 6.37

## Input Item: O=C(Nc1ccc2[nH]nc(-c3ccncc3)c2c1)C1CN(Cc2ccsc2)CCO1 (centres unmarked)
## Output 7.11

## Input Now the compound O=C(Nc1ccc2[nH]nc(-c3ccncc3)c2c1)C1CN(Cc2ccsc2)CCS1 (centres unmarked)
## Output 7.47

---

system.under.test: ERK protein (Homo sapiens, UniProt P28482)
Response field label: string, one of y (Kd strictly below 200 nM) or n.

## Input Lab note: confirm whether the reported Kd for this molecule is below 200 nM, equality not counting. molecule: O=C(Nc1ccc2[nH]nc(-c3ccncc3)c2c1)C1CCCN(Cc2ccccc2Cl)C1 (centres unmarked) [Compound 23]
## Output y

## Input Moving on to the next molecule: O=C(Nc1ccc2[nH]nc(-c3ccncc3)c2c1)C1CN(Cc2cccnc2)CCO1 (centres unmarked) [Compound 19]
## Output n

## Input Lookup CCCCNC(=O)c1n[nH]c2ccc(NC(=O)C3CN(Cc4ccccc4F)CCS3)cc12 (centres unmarked) [Compound 76]
## Output n

## Input What about CC(C)Oc1ccc(-c2n[nH]c3ccc(NC(=O)C4CN(Cc5ccccc5)CCO4)cc23)cn1 (centres unmarked) [Compound 1] ?
## Output n

## Input Follow-up item: Cc1nc(CN2CCSC(C(=O)Nc3ccc4[nH]nc(-c5ccncc5)c4c3)C2)cs1 (centres unmarked) [Compound 11]
## Output n

## Input Same for O=C(Nc1ccc2[nH]nc(-c3ccncc3)c2c1)C1CN(Cc2ccccc2F)CCS1(=O)=O (centres unmarked) [Compound 70]
## Output y

## Input Another molecule to check: O=C(Nc1ccc2[nH]nc(-c3ccncc3)c2c1)C1CN(Cc2ccccc2Cl)CCS1 (centres unmarked) [Compound 9]
## Output y

## Input Now the same for O=C(Nc1ccc2[nH]nc(-c3ccncc3)c2c1)[C@H]1CN(Cc2ccccc2)CCN1 [Compound 59]
## Output y
